experiment: recombinant UMI read abundance after kanamycin selection (control-corrected) (log10(CPM+1)); higher = more efficient recombination; extreme values may be limits of the assay; sequences stand for … in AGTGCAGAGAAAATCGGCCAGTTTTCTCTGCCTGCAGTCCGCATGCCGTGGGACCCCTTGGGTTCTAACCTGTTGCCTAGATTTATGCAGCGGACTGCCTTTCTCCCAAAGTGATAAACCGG…AGGTTGGTTTCACT; site = the 11-nt donor;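 also: IS621 bridge recombinase in Escherichia coli cells against a fixed T5 target plasmid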
Use TRUE when the recorded recombinant UMI read abundance (log10) is no lower than 0.01; use FALSE when it is lower.

1) AGGTTCCCATGGACCGGTTTTCCCGGTAATCCGTATTTGTA (site AGGTTCCCTCA) : TRUE
2) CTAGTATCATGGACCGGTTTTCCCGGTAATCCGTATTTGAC (site TTAGTAACTGT) : FALSE
3) CGTAAAGCATGGACCGGTTTTCCCGGTAATCCGTATTTGAT (site CTTAAAGCTAT) : FALSE
4) CCCTTCCCATGGACCGGTTTTCCCGGTAATCCGTATTTGGG (site CCCTTCCCTCC) : FALSE
5) ATCTTTACATGGACCGGTTTTCCCGGTAATCCGTATTTGAC (site ATCTCTACTGT) : FALSE
6) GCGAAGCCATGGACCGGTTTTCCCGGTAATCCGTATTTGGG (site GCGAAGCCTTC) : TRUE
7) AGCCTAGCATGGACCGGTTTTCCCGGTAATCCGTATTTGGT (site AGCCTAGCTAA) : TRUE

Next sequence, please.
### Prompt Reported recombinant UMI read abundance (log10) reaches at least 0.01 for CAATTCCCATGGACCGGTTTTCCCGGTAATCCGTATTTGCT (site CTATTCCCTAG) ?
### Response FALSE
